FYI, the data here is from the MegaScale stability set (Tsuboyama et al. 2023).

B1: EHEE_rd3_0053 (parent)
chain: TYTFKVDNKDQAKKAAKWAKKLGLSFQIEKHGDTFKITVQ

variants of: B1; experiment: folding stability dG (cDNA display proteolysis); higher = more stable; details: PBS, room temperature
value kind: folding stability dG (kcal/mol)
Answers are plain numbers, in kcal/mol.

Below are worked cases with known answers.
[[record]]
variant_name = "Q40G"
value_kind = "folding stability dG"
measured_result = 2.55

[[record]]
variant_name = "G23L"
value_kind = "folding stability dG"
measured_result = 1.24

[[record]]
variant_name = "T34K"
value_kind = "folding stability dG"
measured_result = 2.65


Required: folding stability dG, one value per variant below.
1. T34H
2. S25I
3. Y2N
4. T34E
5. G32M

Data returned:
[2.92, 2.43, 0.999, 2.4, 1.7]
